The measurements presented in this section are drawn from patent US4656166A.

System: Escherichia coli SOL 90
EXPERIMENT: MIC, in vitro dilution method, Escherichia coli SOL 90 (Table III)
Assay type: cell-based
CONDITION PARAMETERS: SOL90; Escherichia coli SOL 90; dilution method; read-out: MIC
EXPERIMENTAL READOUT: MIC (µg/mL)

- COMPOUND: "CC(C)(O/N=C(\\C(=O)NC1C(=O)N2C(C(=O)O)=C(COC(=O)CCCCN)C[S+]([O-])C12)c1csc(N)n1)C(=O)O (stereo not drawn)"
  OPERATOR: "="
  RESULT VALUE: 0.25
- COMPOUND: "NCC(=O)Nc1ccc(C(=O)OCC2=C(C(=O)O)N3C(=O)C(NC(=O)C(=NOC4(C(=O)O)CCC4)c4csc(N)n4)C3[S+]([O-])C2)cc1 (stereo not drawn)"
  OPERATOR: "="
  RESULT VALUE: 0.25
- COMPOUND: "CC(C)(O/N=C(\\C(=O)NC1C(=O)N2C(C(=O)O)=C(COC(=O)c3ccc(CN)cc3)C[S+]([O-])C12)c1csc(N)n1)C(=O)O (stereo not drawn)"
  OPERATOR: "≤"
  RESULT VALUE: 0.12
- COMPOUND: "CC(C)(ON=C(C(=O)NC1C(=O)N2C(C(=O)O)=C(COC(=O)c3ccc(CN)c(F)c3)C[S+]([O-])C12)c1csc(N)n1)C(=O)O (stereo not drawn)"
  OPERATOR: "="
  RESULT VALUE: 0.125
- COMPOUND: "CC(C)(ON=C(C(=O)NC1C(=O)N2C(C(=O)O)=C(COC(=O)c3cccc(NC(=O)CCCN)c3)C[S+]([O-])C12)c1csc(N)n1)C(=O)O (stereo not drawn)"
  OPERATOR: "="
  RESULT VALUE: 2
- COMPOUND: "CNCc1ccc(C(=O)OCC2=C(C(=O)O)N3C(=O)C(NC(=O)C(=NOC(C)(C)C(=O)O)c4csc(N)n4)C3[S+]([O-])C2)cc1F (stereo not drawn)"
  OPERATOR: "="
  RESULT VALUE: 0.25
- COMPOUND: "CC(C)(ON=C(C(=O)NC1C(=O)N2C(C(=O)O)=C(COC(=O)C3CCCNC3)C[S+]([O-])C12)c1csc(N)n1)C(=O)O (stereo not drawn)"
  OPERATOR: "="
  RESULT VALUE: 0.5
- COMPOUND: "CC(O/N=C(\\C(=O)NC1C(=O)N2C(C(=O)O)=C(COC(=O)c3ccc(CN)cc3)C[S+]([O-])C12)c1csc(N)n1)C(=O)O (stereo not drawn)"
  OPERATOR: "≤"
  RESULT VALUE: 0.12
- COMPOUND: "CC(C)[C@H](N)C(=O)OCC1=C(C(=O)O)N2C(=O)C(NC(=O)/C(=N\\OC(C)(C)C(=O)O)c3csc(N)n3)C2[S+]([O-])C1 (stereo partly drawn)"
  OPERATOR: "="
  RESULT VALUE: 1
- COMPOUND: "Cc1cc(CN)ccc1C(=O)OCC1=C(C(=O)O)N2C(=O)C(NC(=O)C(=NOC(C)(C)C(=O)O)c3csc(N)n3)C2[S+]([O-])C1 (stereo not drawn)"
  OPERATOR: "="
  RESULT VALUE: 0.125
- COMPOUND: "CNCCCC(=O)OCC1=C(C(=O)O)N2C(=O)C(NC(=O)/C(=N\\OC(C)(C)C(=O)O)c3csc(N)n3)C2[S+]([O-])C1 (stereo not drawn)"
  OPERATOR: "="
  RESULT VALUE: 0.25
- COMPOUND: "Cc1cc(CN)ccc1C(=O)SCC1=C(C(=O)O)N2C(=O)C(NC(=O)C(=NOC(C)(C)C(=O)O)c3csc(N)n3)C2[S+]([O-])C1 (stereo not drawn)"
  OPERATOR: "="
  RESULT VALUE: 0.5
- COMPOUND: "CC(C)(CN)C(=O)SCC1=C(C(=O)O)N2C(=O)C(NC(=O)C(=NOC(C)(C)C(=O)O)c3csc(N)n3)C2[S+]([O-])C1 (stereo not drawn)"
  OPERATOR: "="
  RESULT VALUE: 4
- COMPOUND: "NCC(=O)N1CCC(C(=O)SCC2=C(C(=O)O)N3C(=O)C(NC(=O)C(=NOC4(C(=O)O)CCC4)c4csc(N)n4)C3[S+]([O-])C2)CC1 (stereo not drawn)"
  OPERATOR: "="
  RESULT VALUE: 1
- COMPOUND: "CC(N)C(=O)N1CCC(C(=O)OCC2=C(C(=O)O)N3C(=O)C(NC(=O)C(=NOC(C)(C)C(=O)O)c4csc(N)n4)C3[S+]([O-])C2)CC1 (stereo not drawn)"
  OPERATOR: "="
  RESULT VALUE: 0.25
- COMPOUND: "Cc1cc(CN)ccc1C(=O)OCC1=C(C(=O)O)N2C(=O)C(NC(=O)C(=NOC3(C(=O)O)CCC3)c3csc(N)n3)C2[S+]([O-])C1 (stereo not drawn)"
  OPERATOR: "="
  RESULT VALUE: 0.125
- COMPOUND: "Cc1cc(C(=O)OCC2=C(C(=O)O)N3C(=O)C(NC(=O)/C(=N\\OC4(C(=O)O)CCC4)c4csc(N)n4)C3[S+]([O-])C2)ccc1CN (stereo not drawn)"
  OPERATOR: "≤"
  RESULT VALUE: 0.125
- COMPOUND: "CC(N)CC(=O)OCC1=C(C(=O)O)N2C(=O)C(NC(=O)C(=NOC(C)(C)C(=O)O)c3csc(N)n3)C2[S+]([O-])C1 (stereo not drawn)"
  OPERATOR: "="
  RESULT VALUE: 0.5
- COMPOUND: "CC(C)(O/N=C(\\C(=O)NC1C(=O)N2C(C(=O)O)=C(COC(=O)CCCN)C[S+]([O-])C12)c1csc(N)n1)C(=O)O (stereo not drawn)"
  OPERATOR: "="
  RESULT VALUE: 0.25
- COMPOUND: "Cc1c(CN)cccc1C(=O)OCC1=C(C(=O)O)N2C(=O)C(NC(=O)C(=NOC3(C(=O)O)CCC3)c3csc(N)n3)C2[S+]([O-])C1 (stereo not drawn)"
  OPERATOR: "="
  RESULT VALUE: 0.25
- COMPOUND: "CC(C)(ON=C(C(=O)NC1C(=O)N2C(C(=O)O)=C(COC(=O)C3CCN(C(=O)CN)CC3)C[S+]([O-])C12)c1csc(N)n1)C(=O)O (stereo not drawn)"
  OPERATOR: "="
  RESULT VALUE: 0.25
- COMPOUND: "Nc1nc(C(=NOC2(C(=O)O)CCC2)C(=O)NC2C(=O)N3C(C(=O)O)=C(CSC(=O)C4CCNCC4)C[S+]([O-])C23)cs1 (stereo not drawn)"
  OPERATOR: "="
  RESULT VALUE: 0.5
- COMPOUND: "CC(C)(O/N=C(\\C(=O)NC1C(=O)N2C(C(=O)O)=C(COC(=O)[C@@H](N)Cc3c[nH]cn3)C[S+]([O-])C12)c1csc(N)n1)C(=O)O (stereo partly drawn)"
  OPERATOR: "="
  RESULT VALUE: 1
- COMPOUND: "NCc1cccc(C(=O)OCC2=C(C(=O)O)N3C(=O)C(NC(=O)/C(=N\\OC4(C(=O)O)CCC4)c4csc(N)n4)C3[S+]([O-])C2)c1 (stereo not drawn)"
  OPERATOR: "="
  RESULT VALUE: 0.25
